# method: Inhibition of angiotensin I phosphorylation catalyzed by the protein-tyrosine kinase p56 lck partially purified from bovine thymus.
pIC50: −log10 of the molar value.
measure.name: pIC50

Here is how some compounds turned out for pIC50.
COc1cc(OC)cc(C(=O)Nc2ccncc2)c1 [3,5-Dimethoxy-N-pyridin-4-yl-benzamide]    2.51
C(=C\c1ccccn1)/c1ccccn1 [2-[(E)-2-pyridin-2-ylvinyl]pyridine]    2.91
COc1cc(OC)cc(C(=O)Nc2ccccn2)c1 [3,5-Dimethoxy-N-pyridin-2-yl-benzamide]    3.69
c1cc(CCc2ccncc2)ccn1    2.54
COc1cc(C(=O)Nc2cccnc2)cc(OC)c1OC    3.00
O=C(Nc1ccncc1)c1ccncc1 [N-Pyridin-4-yl-isonicotinamide]    2.63

A = COc1ccc(/C=C/c2ccccn2)cc1OC
B = O=C(Nc1ccncc1)c1cccnc1
C = COc1ccc(CCc2cccnc2)cc1OC
D = COc1ccc(/C=C/c2cccnc2)cc1OC
IN: Arrange these compounds by their pIC50, starting with the largest number. Reply format: the labels, ordered as requested.
OUT: D, A, C, B
(D: 3.75, A: 3.08, C: 2.88, B: 2.67)

Data origin: BindingDB's records for doi:10.1016/S0960-894X(00)80254-1
